- study-system: Polyadenylate-binding protein 1 (Homo sapiens, UniProt P11940)
- Sequence (P11940 whole entry, the tested form may be a part): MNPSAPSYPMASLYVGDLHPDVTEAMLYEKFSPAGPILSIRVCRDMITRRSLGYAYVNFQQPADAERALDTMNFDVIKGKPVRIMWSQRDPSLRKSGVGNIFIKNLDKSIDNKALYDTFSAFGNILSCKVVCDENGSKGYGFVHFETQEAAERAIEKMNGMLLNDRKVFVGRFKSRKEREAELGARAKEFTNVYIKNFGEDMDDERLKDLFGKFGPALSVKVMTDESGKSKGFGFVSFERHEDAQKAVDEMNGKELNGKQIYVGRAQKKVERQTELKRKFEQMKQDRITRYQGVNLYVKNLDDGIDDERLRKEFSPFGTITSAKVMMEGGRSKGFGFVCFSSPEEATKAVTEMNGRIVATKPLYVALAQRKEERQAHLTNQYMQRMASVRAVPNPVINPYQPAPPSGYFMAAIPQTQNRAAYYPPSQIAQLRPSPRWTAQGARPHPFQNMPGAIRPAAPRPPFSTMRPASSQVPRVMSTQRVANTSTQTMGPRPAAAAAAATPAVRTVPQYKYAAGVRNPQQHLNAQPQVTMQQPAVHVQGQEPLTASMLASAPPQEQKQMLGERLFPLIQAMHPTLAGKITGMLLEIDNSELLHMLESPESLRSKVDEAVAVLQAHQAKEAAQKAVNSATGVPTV
- test-summary: MLLE domain peptide-binding blockers, IC50 – biochemical, fluorescence polarization, FITC-PAM2 peptide, dose response (AID 602259)
- Assay type: functional
- cond: read-out: IC50_Mean
Activity calls are given as the source filed them. Cut-off read from the data, not from the text of the source: active = IC50 of 20 µM or less and inactive = more.
IC50 values by entry
attribute-measured: IC50

| input-smiles | value-observed |
| --- | --- |
| CC(=O)Nc1ccc(S(=O)(=O)Nc2nnc(CC(C)(C)C)s2)cc1 | > 66 µM (inactive) |
| S=C(Nc1ccc2nc(-c3ccccn3)c(-c3ccccn3)nc2c1)N1CCOCC1 | 40.3 µM (inactive) |
| CC(=O)c1cccc(NC(=S)NC(=O)c2ccccc2Br)c1 | > 66 µM (inactive) |
| CCc1c(O)nc(SCc2nc(O)c3ccccc3n2)nc1O | > 66 µM (inactive) |
| FC(F)(F)C(F)(F)C(F)(F)c1nc2nc(Cl)c(Cl)[nH]c-2n1 | > 66 µM (inactive) |
| Cc1nnc(NC(=O)CSc2nc(C(C)C)nc3ccccc23)s1 | > 66 µM (inactive) |
